- System: HOP-92
- Recorded conditions: HOP-92, Non-Small-Cell Lung
Endpoint: GI50 (nM)
Write it as a number; the unit nM goes unstated.

compound="C=C1CCC2C3(C)COC(c4cn(-c5ccccc5)nc4-c4cccc(Cl)c4)OC3CCC2(C)C1CC=C1C(=O)OCC1O (stereo not shown) [1d]" reading=1560
compound="C=C1CCC2C3(C)COC(c4cn(-c5ccccc5)nc4-c4cccc(F)c4)OC3CCC2(C)C1CC=C1C(=O)OCC1O (stereo not shown) [1c]" reading=1530

Query :: Recorded GI50 for C=C1CCC2C3(C)COC(c4cn(-c5ccccc5)nc4-c4ccc(F)cc4)OC3CCC2(C)C1CC=C1C(=O)OCC1O (stereo not shown) [1f] , please?
Result :: 1290

Query :: Recorded GI50 for C=C1CCC2C3(C)COC(c4cn(-c5ccccc5)nc4-c4ccc(Br)cc4)OC3CCC2(C)C1CC=C1C(=O)OCC1O (stereo not shown) [1h] , please?
Result :: 1380

Query :: Recorded GI50 for C=C1CCC2C3(C)COC(c4cn(-c5ccccc5)nc4-c4cccc(Br)c4)OC3CCC2(C)C1CC=C1C(=O)OCC1O (stereo not shown) [1e] , please?
Result :: 1750

Query :: Recorded GI50 for C=C1CCC2C3(C)COC(c4cn(-c5ccccc5)nc4-c4ccccc4)OC3CCC2(C)C1CC=C1C(=O)OCC1O (stereo not shown) [1a] , please?
Result :: 1530

Query :: Recorded GI50 for C=C1CCC2C3(C)COC(c4cn(-c5ccccc5)nc4-c4cccc([N+](=O)[O-])c4)OC3CCC2(C)C1CC=C1C(=O)OCC1O (stereo not shown) [1b] , please?
Result :: 1860

----------
- System: SF-295
Endpoint: GI50 (µM)
Write it as a number; the unit µM goes unstated.

compound="C=C1CCC2C3(C)COC(c4cn(-c5ccccc5)nc4-c4ccc(Cl)cc4)OC3CCC2(C)C1CC=C1C(=O)OCC1O (stereo not shown) [1g]" endpoint=GI50 reading=1.5
compound="C=C1CCC2C3(C)COC(c4cn(-c5ccccc5)nc4-c4ccc(F)cc4)OC3CCC2(C)C1CC=C1C(=O)OCC1O (stereo not shown) [1f]" endpoint=GI50 reading=1.55
compound="C=C1CCC2C3(C)COC(c4cn(-c5ccccc5)nc4-c4cccc(Br)c4)OC3CCC2(C)C1CC=C1C(=O)OCC1O (stereo not shown) [1e]" endpoint=GI50 reading=1.36
compound="C=C1CCC2C3(C)COC(c4cn(-c5ccccc5)nc4-c4cccc(Cl)c4)OC3CCC2(C)C1CC=C1C(=O)OCC1O (stereo not shown) [1d]" endpoint=GI50 reading=1.42
compound="C=C1CCC2C3(C)COC(c4cn(-c5ccccc5)nc4-c4ccccc4)OC3CCC2(C)C1CC=C1C(=O)OCC1O (stereo not shown) [1a]" endpoint=GI50 reading=1.64

Query :: Please provide the recorded GI50 for C=C1CCC2C3(C)COC(c4cn(-c5ccccc5)nc4-c4ccc(C)cc4)OC3CCC2(C)C1CC=C1C(=O)OCC1O (stereo not shown) [1i] , tested on SF-295.
Result :: 1.58

Query :: Please provide the recorded GI50 for C=C1CCC2C3(C)COC(c4cn(-c5ccccc5)nc4-c4ccc(Br)cc4)OC3CCC2(C)C1CC=C1C(=O)OCC1O (stereo not shown) [1h] , tested on SF-295.
Result :: 1.54

From: paper PMC12298351
